biological target: Cytochrome P450 2C9 (Homo sapiens) (UniProt P11712); assay: Cytochrome panel assay with activity outcomes; settings: recombinant CYP, pro-luciferin dealkylation, luminescence, p450-cyp2c9; series mostly up to 57.1 µM
Sequence (P11712 whole entry, looked up): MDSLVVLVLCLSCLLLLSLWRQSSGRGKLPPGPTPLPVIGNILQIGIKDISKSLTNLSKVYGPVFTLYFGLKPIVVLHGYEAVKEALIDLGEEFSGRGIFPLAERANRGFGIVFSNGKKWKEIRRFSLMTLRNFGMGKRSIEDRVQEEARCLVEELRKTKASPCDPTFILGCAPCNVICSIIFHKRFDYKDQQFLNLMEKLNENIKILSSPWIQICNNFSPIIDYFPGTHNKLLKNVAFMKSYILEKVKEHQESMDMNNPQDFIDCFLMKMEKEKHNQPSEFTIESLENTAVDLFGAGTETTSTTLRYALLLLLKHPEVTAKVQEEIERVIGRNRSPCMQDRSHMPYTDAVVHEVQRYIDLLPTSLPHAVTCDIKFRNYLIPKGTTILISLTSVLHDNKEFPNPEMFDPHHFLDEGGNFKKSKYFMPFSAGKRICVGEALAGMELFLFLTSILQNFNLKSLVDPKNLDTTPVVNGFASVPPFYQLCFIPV
About 4,000 (25%) of roughly 16,000 compounds were called active. Not shown: some 26% with an inconclusive outcome. Calls come from the whole dose curve; as a rule, active = well fitted curve in the direction sought with a large enough effect; inconclusive = small, poorly fitted or top-dose-only effect, or effect the other way; inactive = no such curve, though single readings can be large or run the other way. These entries were drawn from the full list.
Pick one: active, inactive

Some entries whose results are on file:
{"COMPOUND": "CC(C)NC[C@H](O)c1ccc2ccccc2c1", "CAT": "inactive"}
{"COMPOUND": "N#CCCn1c(=O)c(CCc2ccccc2)nc2cnc(OCc3ccccc3)nc21", "CAT": "active"}
{"COMPOUND": "CCN(CC)CCCNC(=O)CC1Sc2ccccc2NC1=O (stereo not given)", "CAT": "inactive"}
{"COMPOUND": "O=C(NNC(=O)C1CC(c2cccnc2)=NO1)Nc1cccc(F)c1 (stereo not given)", "CAT": "inactive"}

## Task In this assay, the call recorded for COC(=O)c1sc2ncccc2c1OCc1c(Cl)cccc1Cl was what?
## Result active

## Task In this assay, the call recorded for COc1cccc(Nc2ncc3nc(CCc4ccccc4)c(=O)n(CCC#N)c3n2)c1 was what?
## Result inactive

## Task In this assay, the call recorded for CS(=O)(=O)N1CCC[C@@]2(CCN(C(=O)Nc3cccc(C#N)c3)C2)C1 was what?
## Result inactive

## Task In this assay, the call recorded for CC(=O)c1cc(C)ccc1OC(=O)CCN1C(=O)C2C3c4ccccc4C(c4ccccc43)C2C1=O (stereo not given) was what?
## Result inactive

###

target: Cytochrome P450 2C9 (Homo sapiens) (UniProt P11712); assay: Cytochrome panel assay with activity outcomes; settings: recombinant CYP, pro-luciferin dealkylation, luminescence, p450-cyp2c9; series mostly up to 57.1 µM
In all, about 16,000 compounds went through this assay and about 4,000 (25%) were called active. Another 26% or so got no clear call; they are omitted. Calls follow the shape of the dose curve; as a rule, active = well fitted curve in the direction sought with a large enough effect; inconclusive = small, poorly fitted or top-dose-only effect, or effect the other way; inactive = no such curve, though single readings can be large or run the other way. These entries were drawn from the full list.
Pick one: 1 for active, -1 for inactive

Some entries whose results are on file:
{"MOLECULE SMILES": "O=C(c1cc(C(F)(F)F)cc(C(F)(F)F)c1)N1CCC[C@@]2(CCN(c3ccccc3)C2)C1", "ASSAYED SYSTEM": "Cytochrome P450 2C9 (Homo sapiens) (UniProt P11712)", "CAT": -1}
{"MOLECULE SMILES": "COC(=O)c1cc(NC(=O)N2c3ccccc3Sc3ccccc32)cc(C(=O)OC)c1", "ASSAYED SYSTEM": "Cytochrome P450 2C9 (Homo sapiens) (UniProt P11712)", "CAT": 1}

## Task In this assay, the call recorded for O=C(O)/C=C/C(=O)Nc1ccc(F)cc1F was what?
## Result -1

## Task In this assay, the call recorded for CCNc1ncc2nc(-c3cc(F)cc(F)c3)c(=O)n(-c3ccc(OC)cc3)c2n1 was what?
## Result -1

###

target: Cytochrome P450 2C9 (Homo sapiens); assay: Cytochrome panel assay with activity outcomes; conditions: recombinant CYP, pro-luciferin dealkylation, luminescence, p450-cyp2c9; series mostly up to 57.1 µM
The campaign covered roughly 16,000 compounds. About 4,000 (25%) were called active. Another 26% or so got no clear call; they are omitted. Calls come from the whole dose curve; as a rule, active = well fitted curve in the direction sought with a large enough effect; inconclusive = small, poorly fitted or top-dose-only effect, or effect the other way; inactive = no such curve, though single readings can be large or run the other way. These entries were drawn from the full list.
Pick one: active, inactive

Some entries whose results are on file:
{"MOLECULE": "CCCCCSc1nncc(=O)[nH]1", "CAT": "active"}
{"MOLECULE": "COC(=O)c1c(-c2cc(OC)c(OC)c(OC)c2)c2ccc(OCc3ccccn3)cc2c(=O)n1-c1ccc(N)cc1", "CAT": "active"}
{"MOLECULE": "O=C(Cc1ccccc1)Nc1nc2ccc(Cl)cc2c2nc(-c3ccco3)nn12", "CAT": "active"}
{"MOLECULE": "O=C(Nc1ccc(Cl)cc1Cl)c1cccc(N2C(=O)C=CC2=O)c1", "CAT": "active"}
{"MOLECULE": "Cc1ccc(S(=O)(=O)N[C@H](C(=O)Oc2ccc3c(C(F)(F)F)cc(=O)oc3c2)c2ccccc2)cc1", "CAT": "active"}

## Task In this assay, the call recorded for CCCN(CCC)C(=O)[C@@H](CCC(=O)O)NC(=O)c1ccccc1 was what?
## Result inactive

## Task In this assay, the call recorded for Cc1ccc(S(=O)(=O)NC(CC(C)C)C(=O)Oc2ccc3c4c(c(=O)oc3c2)CCC4)cc1 (stereo not given) was what?
## Result inactive

## Task In this assay, the call recorded for CCN(CC)C(=O)CSc1nnc(C2CCCCC2)o1 was what?
## Result inactive

## Task In this assay, the call recorded for CCC1(O)c2ccccc2-c2ncccc21 (stereo not given) was what?
## Result inactive

## Task In this assay, the call recorded for COc1ccc2c(c1)N(C[C@@H](C)CN(C)C)c1ccccc1S2 was what?
## Result inactive
